Data origin, for the record: patent US20200317779A1

For each entry below, report its Absorbance (450 nm) value.
- ASSAY SYSTEM: recombinant cynomolgus monkey CD3ε/δ heterodimer (cynomolgus monkey) (UniProt Q95LI5)
- Sequence (Q95LI5 22-117, stated change not applied, chain 1 of 2): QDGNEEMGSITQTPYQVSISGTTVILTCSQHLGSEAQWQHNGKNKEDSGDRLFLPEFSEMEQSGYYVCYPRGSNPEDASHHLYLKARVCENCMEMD
- Sequence (Q95LI8 22-105, stated change not applied, chain 2 of 2, further chain): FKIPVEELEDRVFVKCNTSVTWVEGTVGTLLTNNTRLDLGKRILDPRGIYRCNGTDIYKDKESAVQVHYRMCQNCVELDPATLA
- TEST SUMMARY: ELISA, coated CD3ε/δ
Number only, please.

Query: For the binder H15 (antibody, human IgG1, lambda, L234A L235A, V domains shown) VH: EVQLVESGGGLVQPGGSLKLSCAASGFTFNTYAMNWVRQASGKGLEWVARIRSKYNNYATYYADSVKDRFTISRDDSQSTLYLQMNSLKTEDTAVYYCVRHGNFGNSYVSWFAYWGQGTLVTVSS VL: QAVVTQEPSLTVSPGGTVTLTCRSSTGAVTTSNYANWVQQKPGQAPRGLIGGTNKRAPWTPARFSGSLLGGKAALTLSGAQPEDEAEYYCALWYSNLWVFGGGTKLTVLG , what Absorbance (450 nm) is on record?
Result: 2.84

Query: For the binder C01 (antibody, human IgG1, lambda, L234A L235A, V domains shown) VH: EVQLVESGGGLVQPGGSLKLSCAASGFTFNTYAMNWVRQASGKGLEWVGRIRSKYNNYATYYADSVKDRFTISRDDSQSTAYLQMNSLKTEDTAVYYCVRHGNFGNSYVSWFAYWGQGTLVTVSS VL: QAVVTQEPSLTVSPGGTVTLTCRSSTGAVTTSNYANWFQQKPGQAPRTLIYGTNKRAPWTPARFSGSLLGGKAALTLSGAQPEDEAEYYCALWYSNLWVFGGGTKLTVLG , what Absorbance (450 nm) is on record?
Result: 0.075

Query: For the binder A09 (antibody, human IgG1, lambda, L234A L235A, V domains shown) VH: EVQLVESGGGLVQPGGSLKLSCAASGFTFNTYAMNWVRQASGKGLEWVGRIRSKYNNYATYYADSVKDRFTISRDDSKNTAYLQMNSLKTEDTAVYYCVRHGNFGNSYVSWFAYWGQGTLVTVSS VL: QAVVTQEPSLTVSPGGTVTLTCRSSTGAVTTSNYANWVQQKPGQAPRTLIYGTNKRAPWTPARFSGSLLGGKAALTLSGAQPEDEAEYYCALWYSNLWVFGGGTKLTVLG , what Absorbance (450 nm) is on record?
Result: 0.05
